These entries and their values trace back to PubChem BioAssay (NCI).

- Test system: SF-539 CNS
- experiment_description: NCI tumour cell line growth inhibition, 48 h; in the data active means GI50 below about 0.43 µM; inactive means the rest
Hi! Could you answer with just one of these? 1 (active), 0 (inactive)

What was the test verdict on Cc1ncnc2c1ccn2[C@@H]1C[C@H](Oc2cc(C(F)F)c(F)c3c2CNCC3)[C@@H](O)[C@H]1O ?
0

Next: CC[C@]1(O)CC2CN(CCc3c([nH]c4ccccc34)C(C(=O)OC)(c3cc4c(cc3OC)N(C=O)[C@H]3[C@@](O)(C(=O)OC)[C@H](OC(C)=O)[C@]5(CC)[C@@H]6C[C@@H]6CN6CC[C@]43[C@@H]65)C2)C1 (some centres undefined)
1

Next: CN(C)C/C=C/C(=O)Nc1ccc(C(=O)Nc2cccc(Nc3ncc(Cl)c(-c4c[nH]c5ccccc45)n3)c2)cc1
1

More entries:
What was the test verdict on [pH]1p2[pH]p3p1p3[pH]2.c1cc[c]([Ge]([c]2ccccc2)[c]2ccccc2)cc1.c1cc[c]([Ge]([c]2ccccc2)[c]2ccccc2)cc1.c1cc[c]([Ge]([c]2ccccc2)[c]2ccccc2)cc1 ?
0
